- Measured target: Myeloperoxidase (Homo sapiens)
- Procedure text: Inhibition of human recombinant myeloperoxidase assessed as compound 1 formation by spectrophotometry in presence of H2O2
Property label: Rate constant for compound I formation (×10⁵ /M/s)
Write it as a number; the unit ×10⁵ /M/s goes unstated.

// query What Rate constant for compound I formation appears in the records for this compound with Myeloperoxidase (Homo sapiens)? NC1=Nc2nc3ccccc3n2C(c2ccc(OCC(=O)O)cc2)N1 (stereo not drawn)
// result 6.8

// query What Rate constant for compound I formation appears in the records for this compound with Myeloperoxidase (Homo sapiens)? COc1ccc2cc(CN(Cc3ccc(F)cc3)C(=S)NCCCN(C)C)c(O)nc2c1
// result 9.36
